Reported pIC50 values for the following molecules.
assayed.system: CDK4/CyclinD1 (Homo sapiens)
assay.notes: CDK4/CyclinD1 kinase inhibitory activity (Caliper mobility shift)
test.conditions: enzyme 20 nM, ATP 672 uM, 28° C. 30 min; read-out: CDK4/Cyclin D1 IC50
pIC50: −log10 of the molar value.

The following molecules have reported results that may help.
>  <molecule>
Cc1cc(C(C)(C)O)c2cc(-c3nc(N[C@@H]4CCOC[C@H]4O)ncc3Cl)cc(F)c2n1

>  <test.value>
7.00 to 8.00

$$$$
>  <molecule>
Cc1nc2c(F)cc(-c3nc(N[C@@H]4CCOC[C@H]4O)ncc3F)cc2c(C)c1C(C)O (single isomer, unassigned) [Example 81a]

>  <test.value>
> 8.00

$$$$
>  <molecule>
CC(O)c1cnc2c(F)cc(-c3nc(N[C@@H]4CCOC[C@H]4O)ncc3Cl)cc2c1Cl (single isomer, unassigned) [Example 40a]

>  <test.value>
> 8.00

$$$$
>  <molecule>
CNC(C)c1cnc2c(F)cc(-c3nc(N[C@@H]4CCOC[C@H]4O)ncc3F)cc2c1Cl (single isomer, unassigned) [Example 64a]

>  <test.value>
7.00 to 8.00

$$$$

Dear colleague, please send me the reported pIC50 for Cc1c(C(C)O)cnc2c(F)cc(-c3nc(N[C@@H]4CCOC[C@H]4O)ncc3Cl)cc12 (single isomer, unassigned) [Example 88a] when you can.
> 8.00

Identify pIC50 associated with the molecule Cc1nc2c(F)cc(-c3nc(N[C@@H]4CCOC[C@H]4O)ncc3Cl)cc2cc1C(C)NC1CC1 (single isomer, unassigned) [Example 73b]
> 8.00

Name the recorded pIC50 of the molecule listed here: "[2H]c1nc(N[C@@H]2CCOC[C@H]2O)nc(-c2cc(F)c3nc(C)c4c(c3c2)CNC(C)(C)C4)c1Cl"
> 8.00

====

assayed.system: CDK1/CyclinB (Homo sapiens)
Sequence (P06493 whole entry): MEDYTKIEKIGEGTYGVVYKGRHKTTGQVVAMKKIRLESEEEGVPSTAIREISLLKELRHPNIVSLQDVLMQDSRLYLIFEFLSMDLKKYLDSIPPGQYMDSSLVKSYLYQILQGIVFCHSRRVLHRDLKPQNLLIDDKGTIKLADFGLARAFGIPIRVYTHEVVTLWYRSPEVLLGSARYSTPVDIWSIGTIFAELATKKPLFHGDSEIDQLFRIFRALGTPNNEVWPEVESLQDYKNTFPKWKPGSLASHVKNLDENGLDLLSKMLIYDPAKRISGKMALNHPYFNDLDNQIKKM
Sequence (P14635 whole entry partner): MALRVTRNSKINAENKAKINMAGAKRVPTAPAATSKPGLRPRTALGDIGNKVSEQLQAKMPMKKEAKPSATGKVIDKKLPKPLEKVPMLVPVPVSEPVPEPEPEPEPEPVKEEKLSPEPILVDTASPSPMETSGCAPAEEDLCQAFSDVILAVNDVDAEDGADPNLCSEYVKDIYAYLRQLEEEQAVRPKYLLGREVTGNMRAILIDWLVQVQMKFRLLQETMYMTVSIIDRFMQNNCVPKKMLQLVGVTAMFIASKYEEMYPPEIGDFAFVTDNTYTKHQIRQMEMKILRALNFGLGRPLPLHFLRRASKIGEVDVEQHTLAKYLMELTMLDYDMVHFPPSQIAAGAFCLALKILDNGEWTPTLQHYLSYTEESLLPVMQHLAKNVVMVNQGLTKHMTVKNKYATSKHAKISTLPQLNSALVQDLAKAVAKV
assay.notes: CDK1/CyclinB kinase inhibitory activity (Caliper mobility shift)
test.conditions: enzyme 3 nM, ATP 20 μM, 28° C. 30 min; read-out: CDK1/Cyclin B1 IC50
pIC50: −log10 of the molar value.
Quick list: pIC50 per entry.

Sample records with pIC50:
>  <molecule>
CC(C)(N)c1cnc2ccc(-c3nc(N[C@@H]4CCOC[C@H]4O)ncc3Cl)cc2c1

>  <pIC50>
6.00 to 7.00

$$$$
>  <molecule>
CC(C)(O)c1cnc2c(F)cc(-c3nc(N[C@@H]4CCOC[C@H]4O)ncc3C#N)cc2c1Cl

>  <pIC50>
≤ 6.00

$$$$
>  <molecule>
[2H]C([2H])([2H])C(O)(c1cc2cc(-c3nc(N[C@@H]4CCOC[C@H]4O)ncc3Cl)cc(F)c2nc1C)C([2H])([2H])[2H]

>  <pIC50>
≤ 6.00

$$$$

Give me measured pIC50, please, for this molecule: Cc1nc2c(F)cc(-c3nc(N[C@@H]4CCOC[C@H]4O)ncc3Cl)cc2c(C)c1[C@H](C)O (single isomer, unassigned) [Example 15b]
6.00 to 7.00

Please look at this molecule and report its pIC50: "[2H]c1nc2c(F)cc(-c3nc(N[C@@H]4CCOC[C@H]4O)ncc3C)cc2c2c1CC1(CC1)NC2"
≤ 6.00

Supply reported pIC50 belonging to this molecule: "CC(C)(O)c1cnc2c(F)cc(-c3nc(N[C@@H]4CCOC[C@H]4O)ncc3F)cc2c1Cl"
6.00 to 7.00

Output measured pIC50 for this item: "O[C@@H]1COCC[C@H]1Nc1cc(-c2cc(F)c3ncc4c(c3c2)CNCC4)c(Cl)cn1"
7.00 to 8.00

====

assayed.system: CDK4/CyclinD1 (Homo sapiens, UniProt P11802)
Sequence (P11802 whole entry): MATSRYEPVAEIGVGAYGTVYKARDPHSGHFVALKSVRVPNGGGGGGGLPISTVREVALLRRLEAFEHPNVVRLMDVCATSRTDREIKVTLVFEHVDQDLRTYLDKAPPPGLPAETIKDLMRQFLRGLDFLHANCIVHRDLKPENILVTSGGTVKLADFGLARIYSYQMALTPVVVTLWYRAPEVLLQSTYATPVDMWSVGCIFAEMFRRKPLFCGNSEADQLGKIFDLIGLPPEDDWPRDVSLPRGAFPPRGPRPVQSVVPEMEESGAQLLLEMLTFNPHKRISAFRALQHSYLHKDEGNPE
Sequence (P24385 whole entry partner): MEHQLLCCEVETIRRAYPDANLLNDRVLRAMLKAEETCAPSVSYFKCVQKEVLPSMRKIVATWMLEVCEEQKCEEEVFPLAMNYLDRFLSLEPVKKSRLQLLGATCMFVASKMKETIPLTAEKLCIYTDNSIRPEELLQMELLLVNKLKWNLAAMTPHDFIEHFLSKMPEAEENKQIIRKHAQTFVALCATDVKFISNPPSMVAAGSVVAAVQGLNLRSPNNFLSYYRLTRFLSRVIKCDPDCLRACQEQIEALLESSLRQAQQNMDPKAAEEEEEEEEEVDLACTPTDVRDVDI
assay.notes: CDK4/CyclinD1 kinase inhibitory activity (Caliper mobility shift)
test.conditions: enzyme 20 nM, ATP 672 uM, 28° C. 30 min; read-out: CDK4/Cyclin D1 IC50
readout.name: IC50

Worked examples follow.
>  <compound>
O[C@@H]1COCC[C@H]1Nc1ncc(Cl)c(-c2cc(F)c3c(c2)N2CCNC[C@@H]2CO3)n1 [Example 19]

>  <IC50>
< 10 nM

$$$$
>  <compound>
O[C@@H]1COCC[C@H]1Nc1ncc(Cl)c(-c2cc(F)c3ncc(C4(O)CCC4)cc3c2)n1 [Example 16]

>  <IC50>
< 10 nM

$$$$
>  <compound>
COc1c(C(C)(C)O)cnc2c(F)cc(-c3nc(N[C@@H]4CCOC[C@H]4O)ncc3Cl)cc12 [Example 43]

>  <IC50>
< 10 nM

$$$$

Indicate the recorded IC50 value for this compound: Cc1cc(C(C)(C)O)nc2c(F)cc(-c3nc(N[C@@H]4CCOC[C@H]4O)ncc3F)cc12 [Example 96]
10 to 100 nM

Return value of IC50 for input [2H]c1nc2c(F)cc(-c3nc(N[C@@H]4CCOC[C@H]4O)ncc3C)cc2c2c1CC1(CC1)NC2 [Example 67] , no commentary.
10 to 100 nM

For the compound CC1(C)Cc2cnc3c(F)cc(-c4nc(N[C@@H]5CCOC[C@H]5O)ncc4F)cc3c2CN1 [Example 24] , report IC50.
< 10 nM

// Input: Cc1nc2c(F)cc(-c3nc(N[C@@H]4CCOC[C@H]4O)ncc3Cl)cc2cc1C1CCCN1 (single isomer, unassigned) [Example 57a] . Output its IC50 only.
< 10 nM

Hello, please tell me recorded IC50 for this one: CNC(C)c1cc2cc(-c3nc(N[C@@H]4CCOC[C@H]4O)ncc3Cl)cc(F)c2nc1C (single isomer, unassigned) [Example 45a]
< 10 nM

Output measured IC50 for this item: CNC(C)c1cnc2c(F)cc(-c3nc(N[C@@H]4CCOC[C@H]4O)ncc3Cl)cc2c1 (single isomer, unassigned) [Example 32a]
< 10 nM

Assign IC50 to the following record: [2H]c1nc(N[C@@H]2CCOC[C@H]2O)nc(-c2cc(F)c3nc(C)c(C(C)O)c(C)c3c2)c1Cl (single isomer, unassigned) [Example 85a]
< 10 nM

Give the reported IC50 for this compound. CC(C)n1c(C(C)(C)O)nc2c(F)cc(-c3cc(N[C@@H]4CCOC[C@H]4O)ncc3Cl)cc21 [Example 12]
10 to 100 nM

Hello, please tell me recorded IC50 for this one: O[C@@H]1COCC[C@H]1Nc1ncc(Cl)c(-c2cc(F)c3ncc(C4(O)CC4)cc3c2)n1 [Example 29]
10 to 100 nM

Look up and state reported IC50 for [2H]c1nc2c(F)cc(-c3nc(N[C@@H]4CCOC[C@H]4O)ncc3C)cc2c2c1CC(C)(C)NC2 [Example 102]
< 10 nM

Given the compound Cc1nc2c(F)cc(-c3nc(N[C@@H]4CCOC[C@H]4O)ncc3Cl)cc2c(C)c1[C@H](C)O (single isomer, unassigned) [Example 15b] , write its reported IC50.
< 10 nM

Annotate the compound Cc1nc2c(F)cc(-c3nc(N[C@@H]4CCOC[C@H]4O)ncc3Cl)cc2c(Cl)c1C(C)O (single isomer, unassigned) [Example 35b] with its measured IC50.
< 10 nM

Input Cc1nc2c(F)cc(-c3nc(N[C@@H]4CCOC[C@H]4O)ncc3Cl)cc2cc1C1CCCN1 (single isomer, unassigned) [Example 57b] , output reported IC50.
10 to 100 nM

Please list IC50 recorded for the compound COC1c2cnc3c(F)cc(-c4nc(N[C@@H]5CCOC[C@H]5O)ncc4F)cc3c2CNC1(C)C (single isomer, unassigned) [Example 108a]
10 to 100 nM

Report measured IC50; entry is O[C@@H]1COCC[C@H]1Nc1ncc(F)c(-c2cc(F)c3ncc4c(c3c2)CNC2(CC2)C4)n1 [Example 56]
< 10 nM

Give IC50 for the following compound: Cc1nc2c(F)cc(-c3ccnc(N[C@@H]4CCOC[C@H]4O)n3)cc2c(C)c1C(C)O (single isomer, unassigned) [Example 82a]
10 to 100 nM

Recall and state the measured IC50 for [2H]c1nc2c(F)cc(-c3nc(N[C@@H]4CCOC[C@H]4O)ncc3Cl)cc2c2c1CC(C)(C)NC2 [Example 100] .
< 10 nM

Report IC50 for CC(C)(O)c1cnc2c(F)cc(-c3nc(N[C@@H]4CCOC[C@H]4O)ncc3F)cc2c1Cl [Example 22]
< 10 nM

Return the recorded IC50 value; entry: CN1Cc2c(cnc3c(F)cc(-c4nc(N[C@@H]5CCOC[C@H]5O)ncc4Cl)cc23)C(O)C1(C)C (single isomer, unassigned) [Example 111b]
100 to 1000 nM

Provide measured IC50 value, entry: Cc1nc2c(F)cc(-c3nc(N[C@@H]4CCOC[C@H]4O)ncc3Cl)cc2cc1C(C)(C)O [Example 5]
< 10 nM

====

assayed.system: CDK9/CyclinT1 (Homo sapiens, UniProt P50750)
Sequence (P50750 whole entry): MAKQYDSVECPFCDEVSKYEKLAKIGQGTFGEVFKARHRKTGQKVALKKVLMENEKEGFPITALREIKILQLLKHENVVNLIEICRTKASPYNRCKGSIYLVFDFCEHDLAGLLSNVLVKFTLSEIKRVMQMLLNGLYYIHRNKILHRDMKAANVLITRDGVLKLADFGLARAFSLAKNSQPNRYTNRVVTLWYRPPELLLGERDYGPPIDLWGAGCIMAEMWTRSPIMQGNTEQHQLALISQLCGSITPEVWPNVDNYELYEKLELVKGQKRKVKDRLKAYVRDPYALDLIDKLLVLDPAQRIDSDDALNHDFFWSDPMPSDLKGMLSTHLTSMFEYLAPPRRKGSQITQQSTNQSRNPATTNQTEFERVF
Sequence (O60563 whole entry partner): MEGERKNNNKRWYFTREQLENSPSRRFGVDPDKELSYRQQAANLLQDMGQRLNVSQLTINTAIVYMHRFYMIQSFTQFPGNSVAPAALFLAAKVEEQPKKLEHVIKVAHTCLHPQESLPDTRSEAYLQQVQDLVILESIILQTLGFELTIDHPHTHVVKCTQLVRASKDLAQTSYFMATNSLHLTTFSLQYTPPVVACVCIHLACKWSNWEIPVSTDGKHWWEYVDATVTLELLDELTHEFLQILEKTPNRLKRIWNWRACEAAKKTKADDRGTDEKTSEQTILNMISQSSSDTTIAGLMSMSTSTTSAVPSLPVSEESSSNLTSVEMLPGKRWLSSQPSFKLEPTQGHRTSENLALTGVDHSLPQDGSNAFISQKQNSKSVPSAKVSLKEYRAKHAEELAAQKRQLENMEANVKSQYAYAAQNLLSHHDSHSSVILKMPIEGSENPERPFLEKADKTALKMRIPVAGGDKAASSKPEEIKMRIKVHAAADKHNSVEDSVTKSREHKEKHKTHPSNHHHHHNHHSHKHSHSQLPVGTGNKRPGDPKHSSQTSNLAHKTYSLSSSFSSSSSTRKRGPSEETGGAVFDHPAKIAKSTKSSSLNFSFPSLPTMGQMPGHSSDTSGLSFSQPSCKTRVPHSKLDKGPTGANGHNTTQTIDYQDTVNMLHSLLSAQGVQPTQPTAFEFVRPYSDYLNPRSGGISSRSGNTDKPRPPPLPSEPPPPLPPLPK
assay.notes: CDK9/CyclinT1 kinase inhibitory activity (Caliper mobility shift)
test.conditions: enzyme 12.5 nM, ATP 10M, 28° C. 30 min; read-out: CDK9/Cyclin T1 IC50
readout.name: IC50

As a guide, the following entries are already answered.
>  <compound>
Cc1nc2c(F)cc(-c3nc(N[C@@H]4CCOC[C@H]4O)ncc3Cl)cc2c(Cl)c1C(C)O (single isomer, unassigned) [Example 35b]

>  <assayed.system>
CDK9/CyclinT1 (Homo sapiens, UniProt P50750)

>  <IC50>
≥ 1000 nM

$$$$
>  <compound>
Cc1c(C(C)NC2CC2)cnc2c(F)cc(-c3nc(N[C@@H]4CCOC[C@H]4O)ncc3Cl)cc12 (single isomer, unassigned) [Example 91b]

>  <assayed.system>
CDK9/CyclinT1 (Homo sapiens, UniProt P50750)

>  <IC50>
≥ 1000 nM

$$$$
>  <compound>
Cc1nc2c(F)cc(-c3nc(N[C@@H]4CCOC[C@H]4O)ncc3F)cc2c(C)c1C(C)O (single isomer, unassigned) [Example 81a]

>  <assayed.system>
CDK9/CyclinT1 (Homo sapiens, UniProt P50750)

>  <IC50>
10 to 100 nM

$$$$
>  <compound>
O[C@@H]1COCC[C@H]1Nc1ncc(Cl)c(-c2cc(F)c3ncc4c(c3c2)CNCC4)n1 [Example 9]

>  <assayed.system>
CDK9/CyclinT1 (Homo sapiens, UniProt P50750)

>  <IC50>
100 to 1000 nM

$$$$
>  <compound>
Cc1nc2c(F)cc(-c3nc(N[C@@H]4CCOC[C@H]4O)ncc3Cl)cc2c(C)c1[C@@H](C)O (single isomer, unassigned) [Example 15a]

>  <assayed.system>
CDK9/CyclinT1 (Homo sapiens, UniProt P50750)

>  <IC50>
100 to 1000 nM

$$$$
>  <compound>
Cc1nc2c(F)cc(-c3nc(N[C@@H]4CCOC[C@H]4O)ncc3Cl)cc2c2c1CCN(C)C2 [Example 37]

>  <assayed.system>
CDK9/CyclinT1 (Homo sapiens, UniProt P50750)

>  <IC50>
≥ 1000 nM

$$$$
>  <compound>
O[C@@H]1COCC[C@H]1Nc1ncc(Cl)c(-c2cc(F)c3ncc4c(c3c2)CNC2(CC2)C4)n1 [Example 21]

>  <assayed.system>
CDK9/CyclinT1 (Homo sapiens, UniProt P50750)

>  <IC50>
100 to 1000 nM

$$$$
>  <compound>
O[C@@H]1COCC[C@H]1Nc1ncc(Cl)c(-c2cc(F)c3ncc(C4(O)CC4)cc3c2)n1 [Example 29]

>  <assayed.system>
CDK9/CyclinT1 (Homo sapiens, UniProt P50750)

>  <IC50>
100 to 1000 nM

$$$$

# return IC50 for CNC(C)c1cc2cc(-c3nc(N[C@@H]4CCOC[C@H]4O)ncc3Cl)cc(F)c2nc1C (single isomer, unassigned) [Example 45a] , test system: CDK9/CyclinT1 (Homo sapiens, UniProt P50750)
100 to 1000 nM
